Biological target: Ba/F3 EGFR Del19/C797S mutants (Homo sapiens, UniProt P00533, C797S, cells depend on it, form not given)
Sequence (P00533 with tags, fused parts or gaps DEL746-750/C797S, form open): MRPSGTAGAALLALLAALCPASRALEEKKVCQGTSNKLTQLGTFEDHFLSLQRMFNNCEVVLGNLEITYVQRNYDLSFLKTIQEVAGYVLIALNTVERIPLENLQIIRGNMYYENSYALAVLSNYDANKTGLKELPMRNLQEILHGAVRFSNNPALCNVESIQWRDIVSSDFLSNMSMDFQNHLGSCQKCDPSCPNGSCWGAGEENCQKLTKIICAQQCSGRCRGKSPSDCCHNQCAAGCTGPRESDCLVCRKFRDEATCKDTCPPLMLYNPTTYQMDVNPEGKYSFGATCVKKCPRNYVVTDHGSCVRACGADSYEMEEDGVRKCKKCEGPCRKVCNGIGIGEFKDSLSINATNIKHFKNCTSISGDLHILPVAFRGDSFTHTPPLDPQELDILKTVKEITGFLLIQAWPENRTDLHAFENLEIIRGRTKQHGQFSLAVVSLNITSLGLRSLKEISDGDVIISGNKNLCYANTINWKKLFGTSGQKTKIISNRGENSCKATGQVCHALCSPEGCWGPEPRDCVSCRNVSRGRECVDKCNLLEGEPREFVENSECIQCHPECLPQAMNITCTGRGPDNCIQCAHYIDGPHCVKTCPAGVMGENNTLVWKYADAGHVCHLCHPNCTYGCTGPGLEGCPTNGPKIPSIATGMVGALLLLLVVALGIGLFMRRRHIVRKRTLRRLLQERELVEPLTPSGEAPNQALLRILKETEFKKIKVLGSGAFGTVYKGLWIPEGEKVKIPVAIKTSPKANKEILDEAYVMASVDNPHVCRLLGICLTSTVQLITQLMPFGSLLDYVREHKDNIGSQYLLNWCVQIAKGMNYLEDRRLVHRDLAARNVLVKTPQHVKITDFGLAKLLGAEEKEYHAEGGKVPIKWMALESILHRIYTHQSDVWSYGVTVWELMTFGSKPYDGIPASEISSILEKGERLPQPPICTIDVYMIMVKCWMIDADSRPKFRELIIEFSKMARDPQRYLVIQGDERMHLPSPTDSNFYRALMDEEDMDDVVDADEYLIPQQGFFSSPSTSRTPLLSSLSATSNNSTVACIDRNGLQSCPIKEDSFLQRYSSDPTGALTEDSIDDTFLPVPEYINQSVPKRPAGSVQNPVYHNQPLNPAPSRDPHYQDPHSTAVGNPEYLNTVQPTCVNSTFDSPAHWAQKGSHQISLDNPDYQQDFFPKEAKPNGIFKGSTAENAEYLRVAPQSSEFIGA
Assay: CellTiter-Glo cell viability, Ba/F3 EGFR Del19/C797S cells
Assay type: cell-based, murine
Conditions: 72 hours, read-out: Ba/F3 EGFR mutant cell (IC50, nM) D/C
property: GI50
Include the unit after the number when you answer.

Field: GI50. Fill in for each record below.
1. CCCc1cc(Nc2ncc(Br)c(Nc3ccc4nccnc4c3NS(C)(=O)=O)n2)c(OC)cc1N1CCC(N(C)C)CC1
2. COc1cc(N2CCC(N3CCN(C)CC3)CC2)c(C)cc1Nc1ncc(Br)c(Nc2ccc3nccnc3c2NS(=O)(=O)C2CC2)n1
3. COc1cc(C2CCN(C(C)=O)CC2)ccc1Nc1ncc(Cl)c(Nc2ccc3nccnc3c2NS(C)(=O)=O)n1

Response:
1: 41 nM; 2: 66 nM; 3: 320 nM

Please go through the list and note GI50 for each compound.
1. COc1cc(N2CCOCC2)c(C)cc1Nc1ncc(Br)c(Nc2ccc3nccnc3c2S(C)(=O)=O)n1 [Example D1]
2. COc1cc(C2CCNCC2)ccc1Nc1ncc(Cl)c(Nc2ccc3nccnc3c2NS(C)(=O)=O)n1
3. CCc1cc(Nc2ncc(Br)c(Nc3cccc(OC)c3N(C)S(C)(=O)=O)n2)c(OC)cc1N1CCC(N2CCN(C)CC2)CC1 [Example C29]
4. CCc1cc(Nc2ncc(Cl)c(Nc3ccc4nccnc4c3N(C)S(C)(=O)=O)n2)c(OC)cc1N1CCC(N2CCOCC2)CC1
5. CCc1cc(Nc2ncc(Cl)c(Nc3ccc4nccnc4c3NS(C)(=O)=O)n2)c(OC)cc1N1CCC(N2CCOCC2)CC1
6. CCc1cc(Nc2ncc(Cl)c(Nc3ccc4nccnc4c3NS(C)(=O)=O)n2)c(OC)cc1N1CCC(N2CC3CCC2CN3C)CC1 (stereo not shown)
7. COc1cc(OC2CNC2)ccc1Nc1ncc(Cl)c(Nc2ccc3nccnc3c2NS(C)(=O)=O)n1

Response:
["1010 nM", "581 nM", "5 nM", "10 nM", "27 nM", "10 nM", "706 nM"]

Batch lookup, GI50 per entry.
1. COc1ccc(Nc2nc(Nc3cc(C)c(N4CCC(N5CCCC5)CC4)cc3OC)ncc2Cl)c(NS(C)(=O)=O)c1
2. COc1cc(C2CCNCC2)ccc1Nc1ncc(Br)c(Nc2ccc3nccnc3c2NS(C)(=O)=O)n1

Response:
["6 nM", "725 nM"]

Provide each entry's GI50 from the list below.
1. COc1cc(C2CCNCC2)ccc1Nc1ncc(C2CC2)c(Nc2ccc3nccnc3c2NS(C)(=O)=O)n1
2. CCCc1cc(Nc2ncc(Cl)c(Nc3ccc4nccnc4c3NS(C)(=O)=O)n2)c(OC)cc1N1CCC(N2CCN(C)CC2)CC1
3. CCc1cc(Nc2ncc(Cl)c(Nc3ccc4c(c3NS(C)(=O)=O)OCCO4)n2)c(OC)cc1N1CCC(N2CCOCC2)CC1
4. COc1cc(N2CCC(N(C)C)CC2)c(C)cc1Nc1ncc(Br)c(Nc2ccc3nccnc3c2N(C)S(C)(=O)=O)n1
5. CCS(=O)(=O)Nc1c(Nc2nc(Nc3cc(C)c(N4CCC(N5CCN(C)CC5)CC4)cc3OC)ncc2Cl)ccc2nccnc12
6. COc1cc(C2=CCNCC2)c(C)cc1Nc1ncc(Br)c(Nc2ccc3nccnc3c2NS(C)(=O)=O)n1 [Example D2]

Response:
1: 697 nM; 2: 14 nM; 3: 13 nM; 4: 34 nM; 5: 46 nM; 6: 462 nM
